We begin with a simple list: items and their reported pIC50.
Target: Amine oxidase [flavin-containing] B (Rattus norvegicus)
Sequence (P19643 whole entry): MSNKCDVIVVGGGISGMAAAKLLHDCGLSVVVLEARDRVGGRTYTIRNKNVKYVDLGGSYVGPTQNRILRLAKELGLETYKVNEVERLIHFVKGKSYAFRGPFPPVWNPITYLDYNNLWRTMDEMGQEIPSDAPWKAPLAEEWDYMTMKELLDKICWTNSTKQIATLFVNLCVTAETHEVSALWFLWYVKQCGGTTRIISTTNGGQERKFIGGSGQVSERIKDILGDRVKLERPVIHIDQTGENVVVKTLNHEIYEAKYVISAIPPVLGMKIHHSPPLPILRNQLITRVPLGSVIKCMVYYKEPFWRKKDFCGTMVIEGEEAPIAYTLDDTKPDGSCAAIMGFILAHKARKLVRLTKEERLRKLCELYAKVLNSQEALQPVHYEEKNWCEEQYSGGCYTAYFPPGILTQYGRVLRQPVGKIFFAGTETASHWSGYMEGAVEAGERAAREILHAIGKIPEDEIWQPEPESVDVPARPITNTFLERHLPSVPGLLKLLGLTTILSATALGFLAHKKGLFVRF
Assay: In vitro inhibitory concentration against Monoamine oxidase B of rat brain homogenates
Format: tissue-based
pIC50: −log10 of the molar value.

These recorded examples may help you get a feel for the data.
>  <compound>
CNCCc1cccc(OC(=O)N(C)C)c1

>  <pIC50>
< 3.00

$$$$
>  <compound>
CN(C)CCc1cccc(OC(=O)N(C)C)c1

>  <pIC50>
< 3.00

$$$$
>  <compound>
C#CCN[C@H]1CCc2ccc(OC(=O)N(C)CCC)cc21

>  <pIC50>
< 3.00

$$$$

Kindly consider the entry below.
Prompt: Form field: reported pIC50 of `C#CCN[C@H]1CCc2ccc(OC(=O)N(C)CC)cc21`
Response: < 3.00

====

Biological target: Acetylcholinesterase (Homo sapiens)
Experiment: In vitro inhibitory concentration against purified Acetylcholinesterase of human erythrocytes; value ranges from 22.2-56.8
testReadout: pIC50
Recall that pIC50 is obtained by taking minus log10 of the concentration measured in molar.

Prompt: What measured pIC50 is associated with `CCN(C)C(=O)Oc1cccc(CCN)c1` on Acetylcholinesterase (Homo sapiens)?
Response: 4.45

====

Biological target: UniProtKB Q9N1N9
Experiment: In vitro inhibitory concentration against Butyrylcholinesterase of horse serum; value ranges from 29.6-110
testReadout: IC50 (µM)
The reply should be a number in µM, with the unit left off.

Prompt: What measured IC50 is associated with C#CCNC1CCc2ccc(OC(=O)N(C)CCCC)cc21 (stereo unspecified) on UniProtKB Q9N1N9?
Response: 53.7

====

Molecular target: Acetylcholinesterase (Homo sapiens, UniProt P22303)
Sequence (P22303 whole entry): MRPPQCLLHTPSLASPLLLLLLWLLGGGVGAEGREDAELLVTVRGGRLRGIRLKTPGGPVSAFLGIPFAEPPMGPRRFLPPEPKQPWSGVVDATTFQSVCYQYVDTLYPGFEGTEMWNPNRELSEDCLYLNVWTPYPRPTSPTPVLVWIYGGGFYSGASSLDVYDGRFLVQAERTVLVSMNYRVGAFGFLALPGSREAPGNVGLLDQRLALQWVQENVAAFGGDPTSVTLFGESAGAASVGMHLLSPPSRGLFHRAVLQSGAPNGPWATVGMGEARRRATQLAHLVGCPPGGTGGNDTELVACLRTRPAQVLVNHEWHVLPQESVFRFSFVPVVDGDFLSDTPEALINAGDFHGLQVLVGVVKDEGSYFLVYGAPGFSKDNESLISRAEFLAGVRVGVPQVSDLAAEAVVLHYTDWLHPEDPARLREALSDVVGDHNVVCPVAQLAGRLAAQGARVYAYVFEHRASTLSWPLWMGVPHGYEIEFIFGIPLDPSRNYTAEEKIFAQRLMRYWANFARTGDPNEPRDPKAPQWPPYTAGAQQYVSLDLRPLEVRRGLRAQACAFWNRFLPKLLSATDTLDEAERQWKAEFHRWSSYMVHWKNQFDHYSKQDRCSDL
Assay: In vitro inhibitory concentration against purified Acetylcholinesterase of human erythrocytes; value ranges from 252-806
testReadout: pIC50
Recall that pIC50 is obtained by taking minus log10 of the concentration measured in molar.

Prompt: Form field: reported pIC50 of C#CCN(C)C1CCc2cccc(OC(=O)N(C)CC)c21 (stereo unspecified)
Response: 3.36

====

Target: Butyrylcholinesterase (Equus caballus)
Test: In vitro inhibitory concentration against Butyrylcholinesterase of horse serum; value ranges from 0.73-0.77
testReadout: pIC50
Recall that pIC50 is obtained by taking minus log10 of the concentration measured in molar.

Prompt: Form field: reported pIC50 of C#CCN(C)C(C)Cc1cccc(OC(=O)N(C)C)c1 (stereo unspecified)
Response: 6.12

====

Biological target: Amine oxidase [flavin-containing] A (Rattus norvegicus)
Test: In vitro inhibitory concentration against Monoamine oxidase A of rat brain homogenates; value ranges from 1.7-3.9
Type: tissue-based
testReadout: pIC50
Recall that pIC50 is obtained by taking minus log10 of the concentration measured in molar.

Prompt: What measured pIC50 is associated with `C#CCNCCc1cccc(OC(=O)N(C)CC)c1` on Amine oxidase [flavin-containing] A (Rattus norvegicus)?
Response: 5.59

====

Biological target: Acetylcholinesterase (Homo sapiens, UniProt P22303)
Test: In vitro inhibitory concentration against purified Acetylcholinesterase of human erythrocytes; value ranges from 3.69-33.1
testReadout: pIC50
Recall that pIC50 is obtained by taking minus log10 of the concentration measured in molar.

Prompt: Form field: reported pIC50 of C#CCN(C)C(C)Cc1cccc(OC(=O)N(C)C2CCCCC2)c1 (stereo unspecified)
Response: 5.06

====

Molecular target: Butyrylcholinesterase (Equus caballus)
Test: In vitro inhibitory concentration against Butyrylcholinesterase of horse serum; value ranges from 6.3-52.4
testReadout: IC50 (µM)
The reply should be a number in µM, with the unit left off.

Prompt: Form field: reported IC50 of C#CCNC1CCc2ccc(OC(=O)N(C)CCC)cc21 (stereo unspecified)
Response: 14.8

====

Target: Butyrylcholinesterase (Equus caballus, UniProt Q9N1N9)
Sequence (Q9N1N9 whole entry): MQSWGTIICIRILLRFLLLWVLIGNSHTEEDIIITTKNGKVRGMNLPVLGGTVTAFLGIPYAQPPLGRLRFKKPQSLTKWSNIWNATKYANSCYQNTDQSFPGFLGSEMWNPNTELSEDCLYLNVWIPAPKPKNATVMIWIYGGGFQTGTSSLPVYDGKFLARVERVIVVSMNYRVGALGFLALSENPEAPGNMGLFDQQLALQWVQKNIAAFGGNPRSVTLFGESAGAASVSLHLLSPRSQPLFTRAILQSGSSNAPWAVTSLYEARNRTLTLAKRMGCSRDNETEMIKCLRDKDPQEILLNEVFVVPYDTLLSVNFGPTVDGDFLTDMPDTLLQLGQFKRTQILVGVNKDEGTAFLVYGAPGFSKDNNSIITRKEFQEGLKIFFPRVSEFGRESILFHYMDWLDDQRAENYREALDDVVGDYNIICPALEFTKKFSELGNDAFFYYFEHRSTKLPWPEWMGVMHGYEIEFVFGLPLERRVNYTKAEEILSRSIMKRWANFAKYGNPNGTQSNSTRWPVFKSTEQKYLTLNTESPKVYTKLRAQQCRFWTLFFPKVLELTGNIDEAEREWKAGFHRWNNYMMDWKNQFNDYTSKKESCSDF
Assay: In vitro inhibitory concentration against Butyrylcholinesterase of horse serum; value ranges from 0.34-1.03
testReadout: IC50 (nM)
The reply should be a number in nM, with the unit left off.

Prompt: Form field: reported IC50 of CN(C)C(=O)Oc1ccc2c(c1)C(N)CC2 (stereo unspecified)
Response: 630

====

Target: Amine oxidase [flavin-containing] A (Rattus norvegicus, UniProt P21396)
Sequence (P21396 whole entry): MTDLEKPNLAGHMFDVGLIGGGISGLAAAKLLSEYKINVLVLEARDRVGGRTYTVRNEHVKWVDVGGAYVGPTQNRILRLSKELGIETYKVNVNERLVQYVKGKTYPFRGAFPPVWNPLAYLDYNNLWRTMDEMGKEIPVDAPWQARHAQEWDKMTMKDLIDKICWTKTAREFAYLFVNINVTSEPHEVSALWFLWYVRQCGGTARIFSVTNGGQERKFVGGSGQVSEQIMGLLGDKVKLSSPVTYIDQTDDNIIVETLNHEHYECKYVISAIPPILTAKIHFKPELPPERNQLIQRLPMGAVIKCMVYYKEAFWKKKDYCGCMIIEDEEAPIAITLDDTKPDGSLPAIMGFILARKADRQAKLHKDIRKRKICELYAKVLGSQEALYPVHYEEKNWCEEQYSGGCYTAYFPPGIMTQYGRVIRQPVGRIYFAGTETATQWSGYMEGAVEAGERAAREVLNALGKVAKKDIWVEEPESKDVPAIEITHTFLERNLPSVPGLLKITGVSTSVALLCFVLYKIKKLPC
Assay: In vitro inhibitory concentration against Monoamine oxidase A of rat brain homogenates; value ranges from 0.014-0.016
Assay type: tissue-based
testReadout: pIC50
Recall that pIC50 is obtained by taking minus log10 of the concentration measured in molar.

Prompt: Form field: reported pIC50 of C#CCN(C)C1CCc2ccc(O)cc21 (stereo unspecified)
Response: 7.82

====

Molecular target: Butyrylcholinesterase (Equus caballus, UniProt Q9N1N9)
Assay: In vitro inhibitory concentration against Butyrylcholinesterase of horse serum; value ranges from 0.8-3.2
testReadout: IC50 (nM)
The reply should be a number in nM, with the unit left off.

Prompt: Form field: reported IC50 of C#CCNC1CCc2ccc(OC(=O)N(C)CC)cc21 (stereo unspecified)
Response: 1500

====

Target: Butyrylcholinesterase (Equus caballus)
Assay: In vitro inhibitory concentration against Butyrylcholinesterase of horse serum; value ranges from 7.65-13.2
testReadout: IC50
Report field: quantity (unit follows the number).

Prompt: What measured IC50 is associated with COc1ccc(N(C)C(=O)Oc2ccc3c(c2)C(N)CC3)cc1 (stereo unspecified) on Butyrylcholinesterase (Equus caballus)?
Response: 9.91 µM

====

Target: Amine oxidase [flavin-containing] B (Rattus norvegicus, UniProt P19643)
Experiment: In vitro inhibitory concentration against Monoamine oxidase B of rat brain homogenates
Assay type: tissue-based
pIC50: −log10 of the molar value.
We begin with a simple list: items and their reported pIC50.

>  <compound>
CCCN(C)C(=O)Oc1cccc(CCN)c1

>  <valueMeasured>
< 3.00

$$$$

Prompt: Form field: reported pIC50 of CCN(C)C(=O)Oc1ccc2c(c1)C(N)CC2 (stereo not drawn)
Response: < 3.00

Prompt: Form field: reported pIC50 of C#CC(C)NCCc1cccc(OC(=O)N(C)C)c1 (stereo not drawn)
Response: < 3.00
